Data origin, for the record: patent US20260085067A1

- System: pCHK1 (S345) in Colo320 DM cells
- assayOverview: Alphalisa assay, detection of pCHK1 (S345) in Colo320 DM cells
- Type: cell-based, human
- assayContext: Homo sapiens, COLO 320DM, compound overnight (approximately 16 hours)
Quick reference: IC50 of the listed items.

compound | IC50
Cc1ccc(F)c([C@@H](C)[C@@H](c2n[nH]c(=O)o2)N2CN(C3CCOC(C)(C)C3)c3cc(Cl)ccc3S2(=O)=O)c1C (single isomer, unassigned) | ≤ 1000 nM
COC(C)(C)CN1CN([C@H](c2n[nH]c(=O)o2)[C@H](C)c2c(F)ccc(C)c2C)S(=O)(=O)c2ccc(Cl)cc21 | ≤ 1000 nM
Cc1ccc(F)c([C@@H](C)[C@@H](c2n[nH]c(=O)o2)N2CCOc3cc(Cl)cc(C(N)=O)c3S2(=O)=O)c1C | 1000 to 5000 nM
Cc1ccc(F)c([C@@H](C)[C@@H](c2n[nH]c(=O)o2)N2CCOc3cc(Cl)ccc3S2(=O)=O)c1C | 1000 to 5000 nM
Cc1ccc(F)c([C@@H](C)[C@@H](c2n[nH]c(=O)o2)N2CN(C)c3c(ccc(Cl)c3CN3CCCCC3)S2(=O)=O)c1C | 10000 to 50000 nM
Cc1ccc(F)c([C@@H](C)[C@@H](c2n[nH]c(=O)o2)N2CCN(C)c3cc(Cl)ccc3S2(=O)=O)c1C | 1000 to 5000 nM

###

Protein target, amino acids: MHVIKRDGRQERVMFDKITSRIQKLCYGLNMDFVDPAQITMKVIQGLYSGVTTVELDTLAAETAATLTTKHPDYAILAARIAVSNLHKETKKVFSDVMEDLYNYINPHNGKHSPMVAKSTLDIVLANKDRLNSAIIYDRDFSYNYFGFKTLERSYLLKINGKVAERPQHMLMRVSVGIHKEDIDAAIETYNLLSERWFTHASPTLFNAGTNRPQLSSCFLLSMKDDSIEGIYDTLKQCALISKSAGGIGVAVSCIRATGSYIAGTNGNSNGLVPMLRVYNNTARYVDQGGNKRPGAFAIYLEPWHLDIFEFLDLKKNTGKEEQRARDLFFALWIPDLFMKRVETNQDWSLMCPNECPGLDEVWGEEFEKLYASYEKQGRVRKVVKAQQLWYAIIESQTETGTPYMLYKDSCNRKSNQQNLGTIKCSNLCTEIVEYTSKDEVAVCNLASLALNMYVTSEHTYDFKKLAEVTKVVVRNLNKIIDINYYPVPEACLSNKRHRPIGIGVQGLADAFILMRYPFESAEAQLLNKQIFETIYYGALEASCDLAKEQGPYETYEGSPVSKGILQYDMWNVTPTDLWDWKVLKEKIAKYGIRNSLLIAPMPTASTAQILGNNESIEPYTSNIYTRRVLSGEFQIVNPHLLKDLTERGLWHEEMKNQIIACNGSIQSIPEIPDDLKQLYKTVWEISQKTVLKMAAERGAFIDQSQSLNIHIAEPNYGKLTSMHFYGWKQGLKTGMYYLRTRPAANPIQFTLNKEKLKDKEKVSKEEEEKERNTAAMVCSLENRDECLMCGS
pIC50: −log10 of the molar value.
Quick reference: pIC50 of the listed items.
propertyName: pIC50

compound | result
CC(=O)c1cc(Cl)cc2c1S(=O)(=O)N([C@H](c1n[nH]c(=O)o1)[C@H](C)c1c(F)ccc(C)c1C)CO2 | > 7.70
Cc1ccc(F)c([C@@H](C)[C@@H](c2n[nH]c(=O)o2)N2CN(S(C)(=O)=O)c3cc(Cl)ccc3S2(=O)=O)c1C | 6.00 to 7.00
Cc1ccc(F)c([C@@H](C)[C@@H](c2n[nH]c(=O)o2)N2CC(=O)N(C)c3cc(Cl)ccc3S2(=O)=O)c1C | 7.00 to 7.70
Cc1ccc(F)c([C@@H](C)[C@@H](c2n[nH]c(=O)o2)N2CN([C@@H]3CCN(CC(F)(F)F)C3)c3cc(Cl)ccc3S2(=O)=O)c1C | 7.00 to 7.70
Cc1ccc(F)c([C@@H](C)[C@@H](c2n[nH]c(=O)o2)N2CN(C)C(=O)c3cc(Cl)ccc3S2(=O)=O)c1C | 7.00 to 7.70
Cc1ccc(F)c([C@@H](C)[C@@H](c2n[nH]c(=O)o2)N2CN(C)c3cc(Cl)cc(CBr)c3S2(=O)=O)c1C | > 7.70

###

- Tested on: pCHK1 (S345) in Colo320 DM cells
- assayOverview: Alphalisa assay, detection of pCHK1 (S345) in Colo320 DM cells
- Type: cell-based, human
- assayContext: Homo sapiens, COLO 320DM, compound overnight (approximately 16 hours)
Quick reference: IC50 of the listed items.
propertyName: IC50

compound | result
Cc1ccc(F)c([C@@H](C)[C@@H](c2n[nH]c(=O)o2)N2CN(C)c3cc(O)ccc3S2(=O)=O)c1C | 10000 to 50000 nM
CON1CN([C@H](c2n[nH]c(=O)o2)[C@H](C)c2c(F)ccc(C)c2C)S(=O)(=O)c2ccc(Cl)cc21 | ≤ 1000 nM
COCCN1CN([C@H](c2n[nH]c(=O)o2)[C@H](C)c2c(F)ccc(C)c2C)S(=O)(=O)c2ccc(Cl)nc21 | ≤ 1000 nM
Cc1ccc(F)c([C@@H](C)[C@@H](c2n[nH]c(=O)o2)N2CN(CC(F)F)c3nc(Cl)ccc3S2(=O)=O)c1C | ≤ 1000 nM

###

- Test system: pCHK1 (S345) in Colo320 DM cells
- assayOverview: Alphalisa assay, detection of pCHK1 (S345) in Colo320 DM cells
- Type: cell-based, human
- assayContext: Homo sapiens, COLO 320DM, compound overnight (approximately 16 hours)
- Protocol: Colo320 DM cells (ATCC #CCL-220, derived from human colorectal adenocarcinoma, Dukes' type C) were seeded on a […], cell culture treated assay plate at a density of 50,000 cells/well in 200 μL of RPMI-1640 media supplemented with 10% Fetal Bovine Serum and incubated at 37° C. overnight. […] Plates were read on an Alpha Technology-compatible plate reader using standard AlphaLisa settings.
Quick reference: IC50 of the listed items.
propertyName: IC50

compound | result
Cc1ccc(F)c([C@@H](C)[C@@H](c2n[nH]c(=O)o2)N2COc3c(ccc(Cl)c3C)S2(=O)=O)c1C | 1000 to 5000 nM
Cc1ccc(F)c([C@@H](C)[C@@H](c2n[nH]c(=O)o2)N2CN(C(C)C)c3cc(Cl)ccc3S2(=O)=O)c1C | 1000 to 5000 nM
Cc1ccc(F)c([C@@H](C)[C@@H](c2n[nH]c(=O)o2)N2CN(C)c3cc(Cl)cc(C(N)=O)c3S2(=O)=O)c1C | ≤ 1000 nM
CC(=O)c1cc(Cl)cc2c1S(=O)(=O)N([C@H](c1n[nH]c(=O)o1)[C@@H](C)c1c(F)ccc(C)c1C)CN2C1CC1 | 1000 to 5000 nM
Cc1ccc(F)c([C@@H](C)[C@@H](c2n[nH]c(=O)o2)N2CN([C@H]3C[C@@H](N(C)C)C3)c3cc(Cl)ccc3S2(=O)=O)c1C | ≤ 1000 nM
Cc1ccc(F)c([C@@H](C)[C@@H](c2n[nH]c(=O)o2)N2CN(C3COC3)c3cc(Cl)ccc3S2(=O)=O)c1C | ≤ 1000 nM
Cc1ccc(F)c([C@@H](C)[C@@H](c2n[nH]c(=O)o2)N2CN(CCO)c3cc(Cl)ccc3S2(=O)=O)c1C | ≤ 1000 nM
Cc1ccc(F)c([C@@H](C)[C@@H](c2n[nH]c(=O)o2)N2CN(C3CCOCC3)c3cc(Cl)ccc3S2(=O)=O)c1C | ≤ 1000 nM
Cc1ccc(F)c([C@@H](C)[C@@H](c2n[nH]c(=O)o2)N2CN(CCCO)c3cc(Cl)ccc3S2(=O)=O)c1C | ≤ 1000 nM
Cc1ccc(F)c([C@@H](C)[C@@H](c2n[nH]c(=O)o2)N2CN([C@@H]3CCN(CCF)C3)c3cc(Cl)ccc3S2(=O)=O)c1C | ≤ 1000 nM
Cc1ccc(F)c([C@@H](C)[C@@H](c2n[nH]c(=O)o2)N2CN([C@H](C)CO)c3cc(Cl)ccc3S2(=O)=O)c1C | 1000 to 5000 nM
Cc1ccc(F)c([C@@H](C)[C@@H](c2n[nH]c(=O)o2)N2CN([C@@H](C)CO)c3cc(Cl)ccc3S2(=O)=O)c1C | ≤ 1000 nM
Cc1ccc(F)c([C@@H](C)[C@@H](c2n[nH]c(=O)o2)N2CN(CCN3CCOCC3)c3cc(Cl)ccc3S2(=O)=O)c1C | ≤ 1000 nM

###

Target protein (sequence): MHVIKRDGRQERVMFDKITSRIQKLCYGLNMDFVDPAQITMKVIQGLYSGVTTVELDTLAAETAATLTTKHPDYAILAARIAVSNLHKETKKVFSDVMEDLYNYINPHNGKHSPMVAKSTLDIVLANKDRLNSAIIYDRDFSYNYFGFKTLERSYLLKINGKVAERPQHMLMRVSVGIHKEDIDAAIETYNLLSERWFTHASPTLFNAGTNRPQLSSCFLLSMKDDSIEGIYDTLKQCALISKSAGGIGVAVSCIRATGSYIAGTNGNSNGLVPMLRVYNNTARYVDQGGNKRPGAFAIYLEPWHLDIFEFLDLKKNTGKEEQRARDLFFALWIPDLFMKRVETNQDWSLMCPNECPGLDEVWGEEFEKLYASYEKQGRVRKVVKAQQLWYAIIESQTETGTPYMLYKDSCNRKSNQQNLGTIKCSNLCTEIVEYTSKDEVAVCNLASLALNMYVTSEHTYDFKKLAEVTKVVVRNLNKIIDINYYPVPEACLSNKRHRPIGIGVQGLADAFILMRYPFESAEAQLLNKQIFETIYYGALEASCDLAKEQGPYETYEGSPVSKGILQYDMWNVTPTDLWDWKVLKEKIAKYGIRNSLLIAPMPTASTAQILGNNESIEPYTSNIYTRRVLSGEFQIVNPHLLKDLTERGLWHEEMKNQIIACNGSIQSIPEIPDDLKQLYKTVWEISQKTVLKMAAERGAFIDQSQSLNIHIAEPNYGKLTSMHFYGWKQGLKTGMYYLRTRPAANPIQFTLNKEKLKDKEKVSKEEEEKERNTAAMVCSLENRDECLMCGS
pIC50: −log10 of the molar value.

molecule | pIC50
Cc1ccc(F)c([C@@H](C)[C@@H](c2n[nH]c(=O)o2)N2CN([C@@H]3CCNC3)c3cc(Cl)ccc3S2(=O)=O)c1C | 7.00 to 7.70
COC(=O)c1cc(Cl)cc2c1S(=O)(=O)N([C@H](c1n[nH]c(=O)o1)[C@H](C)c1c(F)ccc(C)c1C)CN2C | 7.00 to 7.70
Cc1ccc(F)c([C@@H](C)[C@@H](c2n[nH]c(=O)o2)N2CN(C3CCOCC3)c3nc(Cl)ccc3S2(=O)=O)c1C | > 7.70
Cc1ccc(F)c([C@@H](C)[C@@H](c2n[nH]c(=O)o2)N2CN(CCO)c3nc(Cl)ccc3S2(=O)=O)c1C | > 7.70
Cc1ccc(F)c([C@H](C)[C@H](c2n[nH]c(=O)o2)N2CN(CC(O)CO)c3cc(Cl)ccc3S2(=O)=O)c1C (mixture of isomers) | > 7.70
COCCN1CN([C@H](c2n[nH]c(=O)o2)[C@H](C)c2c(F)ccc(C)c2C)S(=O)(=O)c2ccc(Cl)cc21 | > 7.70
Cc1ccc(F)c([C@@H](C)[C@@H](c2n[nH]c(=O)o2)N2CN(C3CCCN(C)C3)c3cc(Cl)ccc3S2(=O)=O)c1C (stereo partly shown) | > 7.70
Cc1ccc(F)c([C@@H](C)[C@@H](c2n[nH]c(=O)o2)N2CN(C)c3c(ccc(Cl)c3CN3CCCCC3)S2(=O)=O)c1C | 6.00 to 7.00
Cc1ccc(F)c([C@@H](C)[C@@H](c2n[nH]c(=O)o2)N2CN(C3CN(C)C3)c3cc(Cl)ccc3S2(=O)=O)c1C | > 7.70
Cc1ccc(F)c([C@@H](C)[C@@H](c2n[nH]c(=O)o2)N2CN(CCN3CCCC3)c3cc(Cl)ccc3S2(=O)=O)c1C | > 7.70
Cc1ccc(F)c([C@@H](C)[C@@H](c2n[nH]c(=O)o2)N2CCNc3cc(Cl)ccc3S2(=O)=O)c1C | 7.00 to 7.70
Cc1ccc(F)c([C@@H](C)[C@@H](c2n[nH]c(=O)o2)N2CN(C(C)C)c3cc(Cl)ccc3S2(=O)=O)c1C | 6.00 to 7.00
Cc1ccc(F)c([C@@H](C)[C@@H](c2n[nH]c(=O)o2)N2CN(C3CCCOC3)c3cc(Cl)ccc3S2(=O)=O)c1C (stereo in doubt) [Example 44] | > 7.70
